Settings: in n-butanol, 323.15 K
Property Name: solubility (mole fraction)

### Prompt Quick one: solubility (mole fraction) of N[C@H](Cc1c[nH]cn1)C(=O)O ?
### Response 0.00224

====

Conditions: in ethylene glycol, 308.15 K
Property Name: solubility (mole fraction)
A bare number is all that is needed in reply.

### Prompt Give its solubility (mole fraction) value. Item: N[C@H](Cc1c[nH]cn1)C(=O)O
### Response 0.00385

====

Conditions: in isobutanol, 308.15 K
Property Name: solubility (mole fraction)

### Prompt What value of measured solubility (mole fraction) is listed for N[C@H](Cc1c[nH]cn1)C(=O)O ?
### Response 0.00105
